Just for reference, paper PMC12291850 is where these values come from.

- Assay Target: bovine serum albumin (BSA) (Bos taurus)
- Construct: purchased Merck (Darmstadt, Germany)
- Sequence (P02769 25-607): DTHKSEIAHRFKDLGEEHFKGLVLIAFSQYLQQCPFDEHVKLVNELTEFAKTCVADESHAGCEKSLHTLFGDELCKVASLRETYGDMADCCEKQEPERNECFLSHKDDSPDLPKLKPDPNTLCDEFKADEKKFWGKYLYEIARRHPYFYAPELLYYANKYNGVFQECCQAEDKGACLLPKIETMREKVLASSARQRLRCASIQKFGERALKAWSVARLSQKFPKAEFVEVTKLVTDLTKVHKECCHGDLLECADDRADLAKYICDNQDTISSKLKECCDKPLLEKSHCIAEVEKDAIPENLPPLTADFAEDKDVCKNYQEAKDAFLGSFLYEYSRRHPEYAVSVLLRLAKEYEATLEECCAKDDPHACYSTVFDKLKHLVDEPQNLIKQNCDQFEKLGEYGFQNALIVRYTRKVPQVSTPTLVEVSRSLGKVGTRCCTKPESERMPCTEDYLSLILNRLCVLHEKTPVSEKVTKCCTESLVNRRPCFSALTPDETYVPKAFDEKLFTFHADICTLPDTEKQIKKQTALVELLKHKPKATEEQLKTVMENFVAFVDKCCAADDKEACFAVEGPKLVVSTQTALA
- Assay Name: Fluorescence quenching of BSA by flavonoids (Stern–Volmer, binding equation, van't Hoff)
- Experimental Context: BSA fluorescence quenching, 25 °C
- Text: Fluorescence quenching spectroscopy was employed to investigate the interaction between bovine serum albumin (BSA) and selected flavonoids, including morin. […] To quantify the quenching effect upon encapsulation, the Stern–Volmer equation was applied (Equation (1)):F0/F = 1 + Ksv [Q](1) where F0 and F are the fluorescence intensities of BSA in the absence and presence of quencher (flavonoid), respectively, Ksv is the Stern–Volmer quenching constant, and [Q] is flavonoid concentration. […]
For each record, write down the corresponding bimolecular quenching rate constant (kq).

Find the measured bimolecular quenching rate constant (kq): item `O=c1c(O)c(-c2ccc(O)c(O)c2)oc2cc(O)cc(O)c12` , target or system bovine serum albumin (BSA) (Bos taurus).
1.88 × 10^13 ±0.03 L mol^−1 s^−1

Find the measured bimolecular quenching rate constant (kq): item `O=c1c(O)c(-c2ccc(O)cc2)oc2cc(O)cc(O)c12` , target or system bovine serum albumin (BSA) (Bos taurus).
2.23 × 10^13 ± 0.02 L mol^−1 s^−1

Find the measured bimolecular quenching rate constant (kq): item O=c1c(O)c(-c2ccc(O)cc2O)oc2cc(O)cc(O)c12 [morin, 3,5,7,2′,4′-pentahydroxyflavone] , target or system bovine serum albumin (BSA) (Bos taurus).
1.76 × 10^13 ± 0.02 L mol^−1 s^−1

Find the measured bimolecular quenching rate constant (kq): item `O=c1c(-c2ccc(O)cc2)coc2cc(O[C@@H]3O[C@H](CO)[C@@H](O)[C@H](O)[C@H]3O)cc(O)c12` , target or system bovine serum albumin (BSA) (Bos taurus).
3.66 × 10^12 ± 0.04 L mol^−1 s^−1

Find the measured bimolecular quenching rate constant (kq): item `O=c1c(-c2ccc(O)cc2)coc2cc(O)cc(O)c12` , target or system bovine serum albumin (BSA) (Bos taurus).
8.11 × 10^12 ± 0.04 L mol^−1 s^−1
